Recorded ELISA_avg values for a group of binders are listed next.
target system: T1, recombinant human CD123-Fc (human, UniProt P26951 19-305)
T1 construct: not shown: Fc part of CD123-Fc
T1 sequence: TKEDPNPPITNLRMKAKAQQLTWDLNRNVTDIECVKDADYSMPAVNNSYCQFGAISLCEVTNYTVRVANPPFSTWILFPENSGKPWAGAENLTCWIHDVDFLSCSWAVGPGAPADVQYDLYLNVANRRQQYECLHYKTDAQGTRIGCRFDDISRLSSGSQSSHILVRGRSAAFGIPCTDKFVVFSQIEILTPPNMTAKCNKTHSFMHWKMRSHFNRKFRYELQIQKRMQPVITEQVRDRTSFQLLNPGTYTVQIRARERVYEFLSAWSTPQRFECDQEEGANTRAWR
experiment notes: phage ELISA, A450 target/A450 IgG1-Fc
experimental endpoint: ELISA_avg (ratio)

                                     binder  experimental_endpoint  test_value
0  SEQ ID NO 635 (designed binder) MGSWYEFYWRLEAIEERLWALGGSEAELAEFEKAIATFEDQLQTYKGKGNPEVEALETEALAIHAELEAYRHN              ELISA_avg         3.7
1  SEQ ID NO 698 (designed binder) MGSWYEFYNRLSAIYARLQALGGSEAELAAFEKEIAAFESELQAYKGKGNPEVEDLRWYAADIRYMLQAYRHN              ELISA_avg        10.6
2  SEQ ID NO 683 (designed binder) MGSWMEFIDRLDAIEHRLWALGGSEAELAAFEKEIAAFESELQAYKGKGNPEVEFLREEAAEIRMYLQAYRHN              ELISA_avg         4.3

# credit: patent US20230125550A1
